# PROTOCOL DESCRIPTION: PSAC antagonists in infected red cells, primary screen, cell-based, P. falciparum Indochina, OD700, 2 h (AID 1155);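 also: lysis reports solute entry through the parasite surface anion channel PSAC; channel blockers reduce lysis of infected cells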
# EXPERIMENTAL PARAMETERS: P. falciparum Indochina infected erythrocytes, osmotic lysis OD700; higher = more signal, called active from +8 up or from −8 down
Below: a set of entries, each annotated with reported z-score.

COMPOUND: COCCOC(=O)N1C(=O)[C@@]2(c3cc(C#CC4(O)CCCCCC4)ccc31)[C@H](c1ccccc1OCCO)N1[C@H](c3ccccc3)[C@H](c3ccccc3)OC(=O)[C@H]1[C@@H]2C(=O)N1CCCCCCC1
z-score: 0.755

COMPOUND: C=CC[C@]1(C(=O)NCc2ccccc2)COC(c2ccc(OCCCO)cc2)=N1
z-score: 6.37

COMPOUND: Cc1ccc(S[C@]2(C(=O)NC3CC3)CC(=O)N(Cc3cc(C(F)(F)F)cc(C(F)(F)F)c3)[C@@H]2c2ccc(CO)cc2I)cc1
z-score: 0.774

COMPOUND: C=CCC(OC(C)=O)[C@@H]1[C@@H](N(Cc2cc3ccccc3o2)C(=O)c2ccc(-c3ccccc3)cc2)c2cc(OCCCO)ccc2N1C(=O)c1ccc2ccccc2n1 (some centres not stated)
z-score: 0.698

COMPOUND: C=CCC(OC(C)=O)[C@@H]1[C@@H](N(Cc2ccc(-c3cccc(C(F)(F)F)c3)o2)C(=O)Cc2ccc(OC)cc2)c2cc(OCCCO)ccc2N1C(=O)c1ccc2ccccc2n1 (some centres not stated)
z-score: 0.74

COMPOUND: O=C1C2C=CC(C(O)c3ccc([N+](=O)[O-])cc3)N(Nc3ccccc3)C2C(=O)N1c1ccccc1 (configuration not stated)
z-score: 2.55

COMPOUND: C=CCNC(=O)[C@@H]1[C@H]2C(=O)O[C@H](c3ccccc3)[C@H](c3ccccc3)N2[C@H](c2ccccc2OCCO)[C@@]12C(=O)N(C(=O)OCCOC)c1ccc(C#CCCO)cc12
z-score: 1.15

COMPOUND: COC(=O)[C@@]1(Cc2ccc(F)cc2)[C@H]2c3cc(C(=O)N(C)C)n(CCO)c3C[C@H]2CN1C(=O)c1ccccc1
z-score: -0.687

COMPOUND: CC(C)C[C@@H]1NC(=O)[C@@H]2C[C@H](C(=O)O)[C@H](c3ccc(O)cc3)N2C1=O
z-score: 0.677

COMPOUND: COc1ccc(C(O)C2C=CC3C(=O)N(C)C(=O)C3N2Nc2ccc([N+](=O)[O-])cc2[N+](=O)[O-])cc1OCc1ccccc1 (configuration not stated)
z-score: 0.958

COMPOUND: COCCOC(=O)N1C(=O)[C@@]2(c3cc(C#CC4(O)CCCCCC4)ccc31)[C@H](C(=O)NC[C@H](O)c1ccccc1)[C@H]1C(=O)O[C@H](c3ccccc3)[C@H](c3ccccc3)N1[C@@H]2c1ccc(O)cc1
z-score: 1.01

COMPOUND: CCOC(=O)C1=C(C(=O)OCC)N(S(=O)(=O)CC[Si](C)(C)C)[C@H](c2ccccc2)CC1
z-score: 0.763

COMPOUND: COCCCN1C(=O)[C@@]2(Cc3ccccc31)c1ccccc1C(=O)N(Cc1ccccc1OC)[C@H]2c1ccc(CO)cc1
z-score: 0.216

COMPOUND: CN(C)CCCNC(=O)[C@@]1(Cc2ccccc2I)c2ccccc2C(=O)N(Cc2ccccc2)[C@H]1c1ccc(CO)cc1
z-score: 0.614

COMPOUND: CCCCC(O)C1C=CC2C(=O)N(C)C(=O)C2N1Nc1ccccc1 (configuration not stated)
z-score: 0.735

COMPOUND: CC=CC(O)C1C=CC2C(=O)N(C)C(=O)C2N1NC(=O)OC(C)(C)C (configuration not stated)
z-score: 0.43

COMPOUND: CCCCN1CC=CC23O[C@@H]4C=CCOC(=O)[C@@H]4[C@H]2C(=O)N(C(CO)C(C)C)[C@@H]3C1=O (some centres not stated)
z-score: 0.574

COMPOUND: CC(C)(C)OC(=O)CC[C@]1(C(N)=O)N=C(c2ccc(OCCCO)cc2)O[C@H]1c1ccccc1CN=[N+]=[N-]
z-score: 5.64

COMPOUND: CCCCCCc1nc(-c2ccc(OC)nc2)cc2c1[Si](C(C)C)(C(C)C)OC2
z-score: 0.0409

COMPOUND: NC(=O)NCC#Cc1ccc2c(c1)[C@]1(C(=O)N2)[C@H](C(=O)Nc2nc3ccccc3s2)[C@H]2C(=O)O[C@H](c3ccccc3)[C@H](c3ccccc3)N2[C@@H]1c1ccc(OCCO)cc1
z-score: 1.1

COMPOUND: COCCOC(=O)N1C(=O)[C@@]2(c3cc(C#CCC(C(=O)OC)C(=O)OC)ccc31)[C@H](C(=O)N1CCCCCCC1)[C@H]1C(=O)O[C@H](c3ccccc3)[C@H](c3ccccc3)N1[C@@H]2c1ccccc1OCCO
z-score: -0.228

COMPOUND: CC(c1ccccc1)C(O)C1C=CC2C(=O)N(c3ccccc3)C(=O)C2N1Nc1ccc(C#N)cc1 (configuration not stated)
z-score: 1.58

COMPOUND: COCCOC(=O)N1C(=O)[C@@]2(c3cc(C#CCCO)ccc31)[C@H](C(=O)N1CCc3cc(OC)c(OC)cc3C1)[C@H]1C(=O)O[C@H](c3ccccc3)[C@H](c3ccccc3)N1[C@@H]2c1ccccc1OCCO
z-score: 0.928

COMPOUND: CC(C)C[C@H]1NC(=O)[C@H](Cc2ccccc2)NC(=O)[C@@]23C(=O)N[C@@H](Cc4ccccc4)C2[C@H](C)[C@@]2(C)O[C@H]2C3/C=C/C/C=C\CNC1=O (some centres not stated)
z-score: -0.209

COMPOUND: [N-]=[N+]=NCc1ccccc1C[C@@]1(C(=O)O)N=C(c2ccc(OCCCO)cc2)O[C@@H]1c1ccccc1CN=[N+]=[N-]
z-score: 4.92

COMPOUND: O=C1OCCC=C[C@H]2OC34C=CCN(c5ccc(Cl)cc5)C(=O)[C@H]3N(CCO)C(=O)[C@@H]4C12 (some centres not stated)
z-score: 0.183

COMPOUND: NC(=O)[C@@]1(CCS(=O)(=O)c2ccccc2)COC(c2ccc(OCCCO)cc2)=N1
z-score: 4.56
